Biological target: UniProt:P22735
Sequence (P22735 whole entry): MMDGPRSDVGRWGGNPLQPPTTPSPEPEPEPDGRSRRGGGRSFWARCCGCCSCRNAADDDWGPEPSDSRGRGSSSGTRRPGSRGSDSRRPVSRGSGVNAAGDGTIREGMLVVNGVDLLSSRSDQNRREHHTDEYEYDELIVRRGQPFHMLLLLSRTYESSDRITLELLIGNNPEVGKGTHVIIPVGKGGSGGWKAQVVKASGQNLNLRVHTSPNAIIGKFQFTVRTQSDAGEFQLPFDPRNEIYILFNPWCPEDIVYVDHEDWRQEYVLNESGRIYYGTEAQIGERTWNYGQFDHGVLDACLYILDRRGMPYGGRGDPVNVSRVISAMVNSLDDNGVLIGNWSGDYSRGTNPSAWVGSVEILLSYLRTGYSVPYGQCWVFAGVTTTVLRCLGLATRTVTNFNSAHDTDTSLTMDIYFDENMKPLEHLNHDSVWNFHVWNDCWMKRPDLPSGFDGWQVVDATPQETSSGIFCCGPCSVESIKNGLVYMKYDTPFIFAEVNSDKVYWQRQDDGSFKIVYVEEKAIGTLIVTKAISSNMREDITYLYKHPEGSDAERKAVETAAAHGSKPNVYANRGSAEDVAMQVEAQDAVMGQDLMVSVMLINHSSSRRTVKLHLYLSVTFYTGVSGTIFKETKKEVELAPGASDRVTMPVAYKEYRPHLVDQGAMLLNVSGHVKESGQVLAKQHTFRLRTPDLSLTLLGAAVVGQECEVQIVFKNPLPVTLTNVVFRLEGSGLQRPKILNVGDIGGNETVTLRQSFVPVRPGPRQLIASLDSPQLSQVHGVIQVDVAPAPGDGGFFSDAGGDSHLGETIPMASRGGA
Assay: glutamate dehydrogenase-coupled deamidation assay, substrate Cbz-Gln-Ser
Format: biochemical
Details: irreversible inhibition model, full progress curves
Readout label: kinh/Ki TG1 (M⁻¹ s⁻¹)

Here are 5 molecules together with their reported answers.
O=C(NC[C@@H]1CC(Br)=NO1)[C@@H]1C[C@@H](NC(=O)C2(C(=O)O)CCC2)CN1C(=O)OCc1cnc2ccccc2c1; 96.7
O=C(NC[C@@H]1CC(Br)=NO1)[C@@H]1C[C@@H](c2ccccc2)CN1C(=O)OCc1cnc2ccccc2c1; 1100
O=C(NC[C@@H]1CC(Br)=NO1)[C@@H]1C[C@H](c2ccccc2)CN1C(=O)OCc1cnc2ccccc2c1; 287
O=C(N[C@@H]1C[C@@H](C(=O)NC[C@@H]2CC(Br)=NO2)N(C(=O)OCc2cnc3ccccc3c2)C1)c1cccnc1; 333
O=C(N[C@@H]1C[C@@H](C(=O)NC[C@@H]2CC(Br)=NO2)N(C(=O)OCc2cnc3ccccc3c2)C1)c1ccc(O)cc1; 522

a = O=C(NC[C@@H]1CC(Br)=NO1)[C@@H]1C[C@@H](c2ccccc2O)CN1C(=O)OCc1cnc2ccccc2c1
b = O=C(N[C@@H]1C[C@@H](C(=O)NC[C@@H]2CC(Br)=NO2)N(C(=O)OCc2cnc3ccccc3c2)C1)c1cccc(O)c1
Hi, I'm comparing two records. Which one has the lower kinh/Ki TG1, a or b ? To answer, give the label that identifies your chosen option.
b
(b: 302 M⁻¹ s⁻¹, a: 492 M⁻¹ s⁻¹)

----------
Target: TG2 (Homo sapiens)
Experiment: glutamate dehydrogenase-coupled deamidation assay, substrate Cbz-Gln-Gly
Format: biochemical
Details: irreversible inhibition model, full progress curves
Readout label: kinh/Ki TG2 (M⁻¹ s⁻¹)

I = O=C(N[C@@H]1C[C@@H](C(=O)NC[C@@H]2CC(Br)=NO2)N(C(=O)OCc2cnc3ccccc3c2)C1)c1ccccc1
II = O=C(N[C@@H]1C[C@@H](C(=O)NC[C@@H]2CC(Br)=NO2)N(C(=O)OCc2cnc3ccccc3c2)C1)c1ccc(O)cc1
III = O=C(N[C@@H]1C[C@@H](C(=O)NC[C@@H]2CC(Br)=NO2)N(C(=O)OCc2cnc3ccccc3c2)C1)c1cnccn1
Place the items in sequence of falling kinh/Ki TG2. Write the labels in rank order as requested.
II, I, III
(II: 940 M⁻¹ s⁻¹, I: 430 M⁻¹ s⁻¹, III: 262 M⁻¹ s⁻¹)

----------
Molecular target: TG2 (Homo sapiens, UniProt P21980)
Sequence (P21980 1-687): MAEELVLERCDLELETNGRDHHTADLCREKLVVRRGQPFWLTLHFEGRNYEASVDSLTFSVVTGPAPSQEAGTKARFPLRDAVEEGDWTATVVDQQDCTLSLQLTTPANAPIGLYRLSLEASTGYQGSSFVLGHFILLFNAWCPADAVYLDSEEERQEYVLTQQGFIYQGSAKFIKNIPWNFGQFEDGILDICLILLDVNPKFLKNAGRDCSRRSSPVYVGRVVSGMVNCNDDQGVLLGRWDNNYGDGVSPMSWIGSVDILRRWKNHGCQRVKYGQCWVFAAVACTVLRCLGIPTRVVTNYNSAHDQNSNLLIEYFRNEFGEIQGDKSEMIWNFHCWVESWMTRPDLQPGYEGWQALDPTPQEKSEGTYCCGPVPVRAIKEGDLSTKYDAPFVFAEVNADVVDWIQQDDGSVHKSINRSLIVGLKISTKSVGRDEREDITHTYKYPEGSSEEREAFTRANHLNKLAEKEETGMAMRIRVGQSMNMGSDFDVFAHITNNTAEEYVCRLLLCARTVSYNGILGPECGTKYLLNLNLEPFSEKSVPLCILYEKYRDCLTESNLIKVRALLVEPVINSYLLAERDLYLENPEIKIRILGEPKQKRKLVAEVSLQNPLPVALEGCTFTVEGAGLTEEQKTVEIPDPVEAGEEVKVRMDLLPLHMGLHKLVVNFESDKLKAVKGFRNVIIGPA
Experiment: glutamate dehydrogenase-coupled deamidation assay, substrate Cbz-Gln-Gly
Format: biochemical
Settings: irreversible inhibition model, full progress curves
Readout label: kinh/Ki TG2 (M⁻¹ s⁻¹)

Here are 4 compounds together with their reported answers.
O=C(N[C@@H]1C[C@@H](C(=O)NC[C@@H]2CC(Br)=NO2)N(C(=O)OCc2cnc3ccccc3c2)C1)c1cccc(O)c1 [Compound 3]; 603
O=C(N[C@@H]1C[C@@H](C(=O)NC[C@@H]2CC(Br)=NO2)N(C(=O)OCc2cnc3ccccc3c2)C1)c1cccnc1 [Compound 5]; 1800
O=C(N[C@@H]1C[C@@H](C(=O)NC[C@@H]2CC(Br)=NO2)N(C(=O)OCc2cnc3ccccc3c2)C1)c1ccccc1O [Compound 2]; 618
O=C(NC[C@@H]1CC(Br)=NO1)[C@@H]1C[C@@H](NC(=O)C2(C(=O)O)CCC2)CN1C(=O)OCc1cnc2ccccc2c1 [Compound 7]; 230

P = O=C(NC[C@@H]1CC(Br)=NO1)[C@@H]1C[C@@H](c2ccc(Cl)cc2)CN1C(=O)OCc1cnc2ccccc2c1 [Compound 14]
Q = O=C(NC[C@@H]1CC(Br)=NO1)[C@@H]1C[C@H](c2ccccc2)CN1C(=O)OCc1cnc2ccccc2c1 [Compound 9]
R = O=C(NC[C@@H]1CC(Br)=NO1)[C@@H]1C[C@@H](c2ccccc2O)CN1C(=O)OCc1cnc2ccccc2c1 [Compound 10]
Could you please sort these 3 entries by kinh/Ki TG2 from high to low? Write the labels in rank order as requested.
R, Q, P
